Data origin, for the record: patent EP4339209A1

Measured kon values are reported for all entries that follow.
target: recombinant human GITR (Cat No. 13643-H08H, Lot No. LC12JA2509, Sino Biological) (human) (UniProt Q9Y5U5); test: SPR Biacore 8K, single-cycle kinetics, IgG in supernatant captured on Protein A, GITR as analyte
Write it as a number; the unit M⁻¹ s⁻¹ goes unstated.

Reference set (4 entries):
[
  {
    "binder": "anti-GITR 51B VH1/VL0 antibody (human IgG1, kappa) (antibody, V domains shown) VH: QVQLVQSGAELKKPGASVKLSCKTTGYRFTGYWIEWVRQPPGKGLEWIGEILPGSGATYYSENFKGKATITADTSTNTAYMEVSSLRSGDSAIYYCARKGGYYAMDYWGQGTSVTVSS VL: QIVLTQSPAIMSASLGERVTMTCTASSSVSSSYFHWYQQKPGSSPKLWIYSTSNLASGVPARFSGSGSGTSYSLTVSSLEAEDAATYYCHLYHRSPRTFGGGTTLDIKR",
    "kon (M⁻¹ s⁻¹)": 603000
  },
  {
    "binder": "anti-GITR 51B VH5/VL4 humanized antibody (human IgG1, kappa) (antibody, V domains shown) VH: QVQLVQSGAEVKKPGASVKVSCKTTGYRFTGYWIDWVRQPPGKGLEWIGEILPGSGATYYSENFKGKVTITADTSTDTAYMELSSLRSEDTAIYYCARKGGYYAMDYWGQGTLVTVSS VL: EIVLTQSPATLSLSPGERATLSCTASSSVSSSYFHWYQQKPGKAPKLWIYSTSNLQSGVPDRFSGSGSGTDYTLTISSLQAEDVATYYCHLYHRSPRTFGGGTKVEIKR",
    "kon (M⁻¹ s⁻¹)": "1.08e+06"
  },
  {
    "binder": "anti-GITR 51B VH2/VL5 humanized antibody (human IgG1, kappa) (antibody, V domains shown) VH: QVQLVQSGAEVKKPGASVKLSCKTTGYRFTGYWIEWVRQPPGKGLEWIGEILPGSGATYYSENFKGKATITADTSTNTAYMEVSSLRSEDTAIYYCARKGGYYAMDYWGQGTLVTVSS VL: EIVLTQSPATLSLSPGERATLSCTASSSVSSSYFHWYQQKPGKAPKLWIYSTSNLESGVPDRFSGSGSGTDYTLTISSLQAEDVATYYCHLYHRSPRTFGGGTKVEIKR",
    "kon (M⁻¹ s⁻¹)": 477000
  },
  {
    "binder": "anti-GITR 51B VH3/VL5 humanized antibody (human IgG1, kappa) (antibody, V domains shown) VH: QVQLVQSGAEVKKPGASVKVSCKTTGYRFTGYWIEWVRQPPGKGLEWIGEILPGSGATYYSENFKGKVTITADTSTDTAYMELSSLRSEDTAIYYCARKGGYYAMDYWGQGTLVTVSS VL: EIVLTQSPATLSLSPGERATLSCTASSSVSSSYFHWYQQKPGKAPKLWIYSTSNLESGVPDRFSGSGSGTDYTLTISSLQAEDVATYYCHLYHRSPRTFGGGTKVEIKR",
    "kon (M⁻¹ s⁻¹)": 554000
  }
]

Then this binder:
Item anti-GITR 51B VH1/VL1 humanized antibody (human IgG1, kappa) (antibody, V domains shown) VH: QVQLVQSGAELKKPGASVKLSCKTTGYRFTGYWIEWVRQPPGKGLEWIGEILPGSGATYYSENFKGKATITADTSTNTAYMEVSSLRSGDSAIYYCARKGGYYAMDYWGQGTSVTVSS VL: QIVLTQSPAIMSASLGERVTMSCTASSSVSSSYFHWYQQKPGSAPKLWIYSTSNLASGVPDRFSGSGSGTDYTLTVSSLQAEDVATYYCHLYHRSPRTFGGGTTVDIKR has what recorded kon?
721000
